B1: glmS ribozyme (parent)
chain: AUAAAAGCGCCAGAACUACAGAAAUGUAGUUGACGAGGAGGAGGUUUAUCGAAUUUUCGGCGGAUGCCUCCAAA

variants of: B1; assay: self-cleavage kobs at 40 uM GlcN6P; higher = faster cleavage; RNA array; conditions: with glucosamine-6-phosphate
This sample holds only a part of the variants without activity.
Could you please report measured self-cleavage kobs at 40 uM GlcN6P for the items listed next?

Use these answered entries as a reference point.
seq	self-cleavage kobs at 40 uM GlcN6P
AUAAAGGCGCCAGAACUACAGAAAUGUAGUUGACGAGGAGGAGGUUUAUCGACUUGUCGGCGGAUGCCUCCAAA [A6G A53C U56G]	< 1e-05 s⁻¹
AUAAAAGCAACAGAACUACAGAAAUGUAGUUAACGAGGAGGAGGUUUAUCGAAUUUUCGGCGGAUGCCUCCAAA [G9A C10A G32A]	< 1e-05 s⁻¹
AUAAAAGCGCCAGAACUACAGAAAUGUAGUUGACGAGGAGGAGGUUUAUCGAAUUUUCGGCGUCUGGCUUCAAA [G63U A64C C67G C70U]	< 1e-05 s⁻¹
AUAAAAGCGCCAGAACUACAGAAAUGUAGUCGACGAGGAGGAGGUUUAUCGAAUUUUCGGCGCAUGCCUCCAAA [U31C G63C]	< 1e-05 s⁻¹
AUAAAAGCGCCAGACCUACAGAAAUGUAGUUGACGAGGAGGAGGUUUAUCGAAUAUUCGGGGGAUGCCUCCAAA [A15C U55A C61G]	< 1e-05 s⁻¹
AUAAAAGCGCCAGACCUACAGAAAUGUAGUUGACGAGGAGGGGGUUUAUCGAAUUUUCGGCGGAUGCCUCCAAA [A15C A42G]	0.000206 s⁻¹
AUAAAAGCGCCAGAACUACAGAAAUGUAGUUGAAGAGGAGGAGGUGUAUCGAAUUUUCGGCGGAUGCCUCCAAA [C34A U46G]	< 1e-05 s⁻¹
AUAAAAGCGCCAUAACUACAGAAAUGUAGUUGCCGAGGAGGAGGUUUAUCGAAUUUUCGGCGGAUGCCUCCAAA [G13U A33C]	< 1e-05 s⁻¹

Give self-cleavage kobs at 40 uM GlcN6P for each of the items listed below.
1. AUAAAAGCGGCAGAACUACAGAAAUGUAGUUGACGAGGAGGAGGUUUAUCGAAUUUUCGGCGGAUGUCUCCAAA [C10G C67U]
2. AUAAAAGCGCCAGAAUUACAGAAAUGUAGUUGACGAGGAGGAGGUUUAUCGAAUUUUCGGCGGAUGCCCCCAAA [C16U U69C]
3. AUAAAAGCGCCAGAACUACAGAAAUGUAGUUGACGAGGAGGAGGUUUAUCGAAUUUUCGGCGUAUCCCUCCAAA [G63U G66C]

Result:
< 1e-05 s⁻¹
0.000407 s⁻¹
< 1e-05 s⁻¹
